- ASSAYED SYSTEM: T1, recombinant human IL4Rα-his protein (in house made) (human, UniProt P24394 26-232, limits assumed)
- T1 construct: also called Human IL4Ra-his
- ASSAY INFO: SPR (Biacore), antibody captured, IL4Rα-his flowed
MEASURE NAME: kon (M⁻¹ s⁻¹)
Quick note: give the figure in M⁻¹ s⁻¹, leave out the unit.

Fill in: kon of huC2C1A1A1-V5 (antibody, human IgG4 S228P, kappa, V domains shown, Humanized, human IgG4/kappa) VH: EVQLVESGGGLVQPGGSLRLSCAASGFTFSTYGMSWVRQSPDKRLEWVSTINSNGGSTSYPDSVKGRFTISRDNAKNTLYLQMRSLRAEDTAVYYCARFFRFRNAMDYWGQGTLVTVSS VL: DIQMTQSPSSLSASVGDRVTITCRTSENIYSYLAWYQQKPGKAPKLLIYNAKTLAEGVPSRFSGSGSGTDFTLTISSLQPEDFATYYCQHYYGPPTWTFGQGTKVEIKR is ___
2.65e+06

Queued: huC2C1A1A1-V1 (antibody, human IgG4 S228P, kappa, V domains shown, Humanized, human IgG4/kappa) VH: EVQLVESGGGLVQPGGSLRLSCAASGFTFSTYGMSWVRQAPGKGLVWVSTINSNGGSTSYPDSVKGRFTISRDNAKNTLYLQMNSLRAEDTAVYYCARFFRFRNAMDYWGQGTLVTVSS VL: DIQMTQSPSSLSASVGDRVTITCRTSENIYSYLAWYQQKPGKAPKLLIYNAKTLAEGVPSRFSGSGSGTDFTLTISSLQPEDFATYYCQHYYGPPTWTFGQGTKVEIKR
129000

Reference for the values: patent US20230105029A1
